Assay: NCI Yeast Anticancer Drug Screen. Data for the rad50 strain (AID 155);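 note: 0% = growth of vehicle-only cultures of the same strain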
Conditions: S. cerevisiae rad50 strain growth inhibition; at 50.0 µM; stronger effect = higher value
This is part of a sample that, as a whole, favours compounds with a hit. Of some 79,000 tested, about 15% had one in any assay.
# growth inhibition per entry
observable: growth inhibition (%)

compound | observable | numeric.value
O=C(NCCCCCN1CCC2(CCCCC2)CC1)C(c1ccccc1)C1CCCCC1 (stereo unspecified) | growth inhibition | 99.6
O=C(CC(=O)c1ccccc1)CC(O)(c1ccccc1)c1ccccc1 | growth inhibition | 84.9
CC(C)/C(Cl)=N/OC(NC(=O)Nc1ccc(Cl)c(Cl)c1)(C(F)(F)F)C(F)(F)F | growth inhibition | 99.2
Oc1cc2ccccc2c2c1ccc1ccccc12 | growth inhibition | 84.5
C#CCN1CCN(C(=S)N/N=C(\C)c2ccccn2)CC1 | growth inhibition | 99.5
Oc1ccccc1C1C=C(c2ccccc2)NC(N2CCCCC2)=C1c1nc2ccccc2[nH]1 (stereo unspecified) | growth inhibition | 18.1
